From: PubChem BioAssay AID1159580

Experiment: chemical genetic growth profiling, strain panel (AID 1159580);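 note: tested at 20 µM; growth read once vehicle control cultures reached saturation at 30 °C; lower values mean less growth of the strain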
Settings: S. cerevisiae deletion strains, growth OD, locus YBL061C, strain skt5
The whole screen tested about 5,500 compounds, of which about 2,000 (36%) were called active. About 18% were inconclusive and are not listed. Cut-off read from the data, not from the text of the source: active = normalized growth mostly below about 0.91 (no sharp cut-off); inconclusive = no clear call, values can overlap the other calls; inactive = mostly above about 0.92. The list shows a part of the results.
Output constraint: value belongs to Yes for active, No for inactive

- molecule: "CCCn1c(=O)c2[nH]c(C3CCCC3)nc2n(CCC)c1=O"
  answer.label: "No"
- molecule: "CC(=O)O[C@@H]1CC2C(C)(C)[C@H](O)C=C[C@]2(C)C2CC[C@@]3(C)[C@H](c4ccoc4)OC(=O)C4OC43[C@@]21C (stereo partly drawn)"
  answer.label: "No"
- molecule: "CC(=O)O[C@H]1C[C@@H](OC(C)=O)C(C)(C)C2C[C@@H](OC(C)=O)[C@]3(C)C(CC[C@@]4(C)[C@H](c5ccoc5)OC(=O)[C@H]5O[C@]543)[C@]21C (stereo partly drawn)"
  answer.label: "No"

query: Could you check what this test reported for Cc1cc(/C=C/c2ccc3cc(N(C)C)ccc3[n+]2C)c(C)n1-c1ccccc1 ?
result: No

query: So what was the verdict on O=C(O)CCC1NCC2CC1CN1CCCCC21 (stereo not drawn) in this test?
result: No

query: Query: recorded result category for CC(=O)O[C@@H]1CC2C(C)(C)C(=O)C3OC3[C@]2(C)C2CC[C@@]3(C)[C@H](c4ccoc4)OC(=O)C4OC43[C@@]21C (stereo partly drawn) in this test
result: No

query: What did this assay record as the result for CN1CCC[C@@H]1CCO[C@](C)(c1ccccc1)c1ccc(Cl)cc1 ?
result: No

query: Lab log entry: CC1(C)N([O-])[N+](=O)C1(C)Br (stereo not drawn) — outcome as called in the assay?
result: No

query: Given CC(=O)O[C@@H]1CC2C(C)(C)[C@@H](O)CC[C@]2(C)C2CC[C@@]3(C)[C@H](c4ccoc4)OC(=O)[C@H]4O[C@]43[C@@]21C (stereo partly drawn) , state the outcome it received in this test.
result: No

query: What outcome does the record of this test show for CC(C)c1nc(N(C)S(C)(=O)=O)nc(-c2ccc(F)cc2)c1/C=C/[C@@H](O)C[C@@H](O)CC(=O)O ?
result: No

query: Returns: the outcome recorded for Nc1nc(F)nc2c1ncn2[C@@H]1O[C@H](COP(=O)(O)O)[C@@H](O)[C@@H]1O in this assay.
result: No

query: Tell me the assay call for O=c1[nH]c(=O)n(C2C[C@H](O)[C@@H](CO)O2)cc1C(F)(F)F (stereo partly drawn) please.
result: No
